Just for reference, patent US20200347144A1 is where these values come from.

tgt: T1, monkey 4-1BB on CHOK1 cells (monkey)
T1 construct: whole, on cells; also called CHOK1-c4-1BB
method-notes: FACS, CHOK1-c4-1BB cells; Ab 2 ug/ml
property: average fluorescence intensity (MFI)
Return type: number; implicit unit MFI.

Q) Value lookup for average fluorescence intensity; key = 57B3D10 (antibody, V domains shown, also called 4-1BB fully human antibody 57B3D10) VH: QVQLQESGPGLVKPSETLSLTCTVSGGSISSYYWSWIRQPPGKGLEWIGYIYYSGSTNYNPSLKSRVTISVDTSKSQFSLKLTSVTAADTAVYYCAKDSDYYGSGSYSYWYFDLWGRGTLVTVSS VL: EIVMTQSPATLSVSPGERATLSCRASQSVSSNLAWYQQKPGQAPRLLIYGASTRAPGIPARFSGSGSGTEFTLTISSLQSEDFAVYYCQQYNNWPLTFGGGTKVEIK
A) 567

Q) And then 100F3C4 (antibody, V domains shown) VH: QVQLQESGPGLVKPSGTLSLTCAVSGGSISSSNWWSWVRQPPGKGLEWIGEIYHSGSTNYNPSLKSRVTMSVDKSKNQFSLELRSVTAADTAVYYCARDAVDAYYYYYGMDVWGQGTTVTVSS VL: DIQLTQSPSFLSASVGDRVTITCRASQGISSYLAWYQQKPGKAPKLLIYAASTLQSGVPSRFSGSGSGTEFTLTISSLQPEDFATYYCQHLNSYPFTFGPGTKVDLK , what is it?
A) 479
